Tested on: Saccharomyces cerevisiae
measurementDescription: protein stability index of tFT-peptide fusion (C-terminal peptide) (PSI (0-1 scale)); higher = more stable (slower turnover)
measurementConditions: genetic background: das1 deletion; temperature: 30 C
measurementLabel: protein stability index
The reply should be a number, written without any unit.

Reference set (2 entries):
AEELWADIVGSA [TRP2 C-terminal 12 aa] ... 0.751
AAQLSSILPKYM [YLR140W C-terminal 12 aa] ... 0.674

Asked: I'd like to know its protein stability index. The sequence in question is DLEGVLWRSYYA [BLM10 C-terminal 12 aa]
Given back: 0.744

Asked: Entry to check: TGFKDKFLDALL [PUT4 C-terminal 12 aa]
Given back: 0.689

Asked: Please give the result for NEQVKKFFLNNV [NAS6 C-terminal 12 aa] too.
Given back: 0.701

Asked: // repeat for ILLITGFKSSFT [SRL4 C-terminal 12 aa] and report
Given back: 0.72

====

Tested on: Saccharomyces cerevisiae
measurementDescription: protein stability index of tFT-peptide fusion in wild type (PSI (0-1 scale)); higher = more stable (slower turnover)
measurementConditions: genetic background: wild type
measurementLabel: protein stability index
// response body must contain only the number

Answered cases to consult:
PSLAASSWRVVG ... 0.167
RSLRWLLPLYFR ... 0.427
CLVSLPILLFMR ... 0.0691
LKILEQKMNHQN ... 0.473

Asked: Reported protein stability index, sequence `LVVYLSCPACIN` : ____
Given back: 0.469

Asked: For `PDKREHLIKLLN` then?
Given back: 0.158

Asked: Also `CLVSLPILMFFR` , if possible.
Given back: 0.0684

Asked: Next sequence: `PDKRNHLIKLAN`
Given back: 0.367

Asked: Same thing, different sequence: `ARWRVGLWRCAS`
Given back: 0.114

Asked: // next record `CTSCFYKFRTNN`
Given back: 0.173

====

System: Saccharomyces cerevisiae
measurementDescription: protein stability index of tFT-peptide fusion (C-terminal peptide) (PSI (0-1 scale)); higher = more stable (slower turnover)
measurementConditions: genetic background: wild type; temperature: 30 C
measurementLabel: protein stability index
Just the number, please.

TSGDFLPSHSFL ... 0.702
GFAAPSRPACLP ... 0.696
LPPLPPLPPPPH ... 0.686

Asked: # query: protein stability index of entry `PPPLRFLSFPPS`
Given back: 0.661

Asked: Another sequence to look at: `IRKEKREKKSSH`
Given back: 0.702

Asked: Another: `NVKIDNKQRKNK`
Given back: 0.746

Asked: Please give the result for `EIVKAHKVKKRK` too.
Given back: 0.717

====

Test system: Saccharomyces cerevisiae
measurementDescription: protein stability index of tFT-peptide fusion (C-terminal peptide) (PSI (0-1 scale)); higher = more stable (slower turnover)
measurementConditions: genetic background: das1 deletion; temperature: 37 C
Label scheme, based on protein stability index: band 1: < 0.4; band 2: ≥ 0.4 and < 0.7; band 3: ≥ 0.7

CLFFLVYELSIL ... band 2
SVHKYGFIKEIN ... band 3
RLGRYSIIHCLA ... band 2
SSRRVVLPLLVA ... band 2
LPVPVLGFPPLA ... band 3

Asked: Kindly identify the class of `SWFNLLSILPRD` .
Given back: band 3

Asked: Input `SFFFTLLICFLF`
Given back: band 1

Asked: And the next one, `LVLELYRFARFG` ?
Given back: band 3

Asked: Same again, this time with `FVLWWGWSWLVV`
Given back: band 1

Asked: And the next one, `IDLISRVTVVAR` ?
Given back: band 2

Asked: # iterate: `FVRVFLRLGVVS`
Given back: band 1

Asked: Please do the same for `RYLCLTPALYLS` as well.
Given back: band 2

Asked: Record: `FRTTGQAPPSKP`
Given back: band 3

Asked: Continue with `FLLGWFLFFVCS`
Given back: band 2

Asked: Okay, and `YMPKHKIQKLMQ` ?
Given back: band 3

Asked: Next up: `GNSAGSVGGGRF`
Given back: band 3

Asked: And then `VYRILFWFLCFG` , what is it?
Given back: band 2

Asked: Lookup `GLGMVIIGLLIG`
Given back: band 2

Asked: Repeat with `ETYCLPRVASGI`
Given back: band 3

Asked: Next up: `LYYSVIFLFLSW`
Given back: band 1

Asked: Try this sequence next: `CRAAMYSFFLNF`
Given back: band 3

Asked: Query `GRGLGHWWTVRT` next
Given back: band 3

====

System: Saccharomyces cerevisiae
measurementDescription: protein stability index of tFT-peptide fusion (C-terminal peptide) (PSI (0-1 scale)); higher = more stable (slower turnover)
measurementConditions: genetic background: cdc34-1; temperature: 37 C
Lab note: compare protein stability index against 0.5. Equal or greater, write y. Smaller, write n.

Please review the entries below; each comes with its answer.
PRHVLWLRRLLF ... y
VFVLFCAFVRAL ... n
ACVWVVALVWVF ... n

Asked: Would you say `VFGFSLLTLLVL` shows protein stability index at minimum 0.5?
Given back: n

Asked: What do you have for `VKGYISLLLVLI` ?
Given back: n

====

Tested on: Saccharomyces cerevisiae
measurementDescription: protein stability index of tFT-peptide fusion (C-terminal peptide) (PSI (0-1 scale)); higher = more stable (slower turnover)
measurementConditions: genetic background: wild type; temperature: 30 C
Decide using protein stability index: a value greater than or equal to 0.6 is true (1), a smaller one is false (0).

Answered examples (5):
FRLPAIRRGHDS ... true (1)
YPNENFALLTEH ... true (1)
MFVRRTDRGGIV ... true (1)
PPLTRVPLSISA ... false (0)
GCEVRTFMNSSG ... true (1)

Asked: Say whether `LEEGLYQQEDIR` shows protein stability index of 0.6 or more.
Given back: true (1)

Asked: Repeat with `SVGFVGVGCRGR`
Given back: true (1)

Asked: Another: `PPKPAQPPTPSP`
Given back: true (1)

Asked: Then this sequence: `LRFFYFLHFCIL`
Given back: false (0)

====

Test system: Saccharomyces cerevisiae
measurementDescription: protein stability index of tFT-peptide fusion (C-terminal peptide) (PSI (0-1 scale)); higher = more stable (slower turnover)
measurementConditions: genetic background: das1 deletion; temperature: 30 C
Below: a set of entries, each annotated with reported protein stability index.

YPQQLLGYTDNG [YKL115C C-terminal 12 aa] ... 0.628
TDCGLETEEIDI [RAD14 C-terminal 12 aa] ... 0.663
EGEYADNVEPLA [PRY1 C-terminal 12 aa] ... 0.712
TEFEKIHRNTFN [REX4 C-terminal 12 aa] ... 0.706
KTVIENPLEMLL [LAT1 C-terminal 12 aa] ... 0.697

Asked: # get_value(readout='protein stability index', item= SRSSIKNIVKPK [MRX15 C-terminal 12 aa] )
Given back: 0.689

Asked: Repeat for the following sequence: YVFIVNHAAEQT [NUP116 C-terminal 12 aa]
Given back: 0.677

Asked: KSVVVRSKEKQS [GAA1 C-terminal 12 aa] , same question.
Given back: 0.7

Asked: Also SAMTSKVLSFFL [RRT7 C-terminal 12 aa] , if possible.
Given back: 0.709

Asked: VEKDLVSVGSTW [NAR1 C-terminal 12 aa] , same question.
Given back: 0.676

Asked: Note, next up: RRKKKLMDELNL [ISY1 C-terminal 12 aa]
Given back: 0.703

Asked: Same again, this time with RRSFFSVFRSEK [AKL1 C-terminal 12 aa]
Given back: 0.68

====

Test system: Saccharomyces cerevisiae
measurementDescription: protein stability index of tFT-peptide fusion (C-terminal peptide) (PSI (0-1 scale)); higher = more stable (slower turnover)
measurementConditions: genetic background: wild type; temperature: 30 C
measurementLabel: protein stability index
// no unit string in output, number only

Please review the entries below; each comes with its answer.
SPKCIVASFVVS ... 0.675
GRGLGHWWTVRT ... 0.751
FSSTSAPPRSAP ... 0.621
HIGSYTFILPSS ... 0.759
SFATSELRAGNN ... 0.701
RSRHPPPPLLFP ... 0.707
VVLRSTFFGSLL ... 0.699
VLCGALRIVGHK ... 0.603
EPCIVCPMSRQG ... 0.773

Asked: Any idea what its protein stability index is? The sequence is `PVVDVRFSFRCL`
Given back: 0.644

====

Parameter protein stability index: see the listing below.
System: Saccharomyces cerevisiae
measurementDescription: protein stability index of tFT-peptide fusion (C-terminal peptide) (PSI (0-1 scale)); higher = more stable (slower turnover)
measurementConditions: genetic background: das1 deletion; temperature: 30 C
Quick one: just the number, no unit, thanks!

KIYMANAPPPPV [VPS54 C-terminal 12 aa] ... 0.706
QTTRMLNDLIVS [MGA2 C-terminal 12 aa] ... 0.664
PSPGFHMYGCHT [YLR156W C-terminal 12 aa] ... 0.708

Asked: Notebook: pull reported protein stability index for Saccharomyces cerevisiae, entry FDIKKANSATLA [TMA46 C-terminal 12 aa]
Given back: 0.658

Asked: Another sequence: QRIHQTLEVPNL [FAR1 C-terminal 12 aa]
Given back: 0.708

Asked: // repeat for KSGPEWIAENRD [TUM1 C-terminal 12 aa] and report
Given back: 0.716
